System: Candida albicans ATCC 90028
Listing of recorded MIC by entry.
Express the result in µM but write the number alone.

{"columns": ["molecule.smiles", "measured.quantity", "result.value"],
 "data": [
  ["CC[C@H](C)[C@@H]1NC(=O)CNC(=O)[C@H](CCCN=C(N)N)NC(=O)[C@H](Cc2ccc(O)cc2)NC(=O)[C@@H]2CSSC[C@H](NC1=O)C(=O)N[C@@H](Cc1ccc(O)cc1)C(=O)N[C@@H](CCCN=C(N)N)C(=O)N[C@@H](CCCN=C(N)N)C(=O)N[C@H](C(=O)N[C@@H](C)C(=O)O)CSSC[C@H](NC(=O)[C@H](Cc1c[nH]c3ccccc13)NC(=O)[C@@H](N)CCCCN)C(=O)N[C@@H](Cc1ccccc1)C(=O)N[C@@H](CCCN=C(N)N)C(=O)N[C@@H](C(C)C)C(=O)N2", "MIC", 1.83],
  ["NC(=O)CC[C@H](NC(=O)[C@H](Cc1cnc[nH]1)NC(=O)[C@H](CO)NC(=O)[C@H](CCCN=C(N)N)NC(=O)[C@H](Cc1ccccc1)NC(=O)[C@H](Cc1cnc[nH]1)NC(=O)[C@H](CCCN=C(N)N)NC(=O)[C@H](Cc1cnc[nH]1)NC(=O)[C@H](Cc1cnc[nH]1)NC(=O)[C@@H](N)CO)C(=O)N[C@@H](CS)C(=O)N[C@@H](CCCN=C(N)N)C(=O)N[C@@H](CCCN=C(N)N)C(=O)O", "MIC", 18.3],
  ["CC[C@H](C)[C@H](N)C(=O)N[C@@H](CC(N)=O)C(=O)N[C@@H](CC(C)C)C(=O)N[C@@H](CCCCN)C(=O)N[C@@H](C)C(=O)N[C@H](C(=O)N[C@@H](C)C(=O)N1CCC[C@H]1C(=O)N[C@@H](CC(C)C)C(=O)N[C@@H](C)C(=O)N[C@@H](CCCCN)C(=O)N[C@@H](CCCCN)C(=O)N[C@@H](CC(C)C)C(=O)N[C@@H](CC(C)C)C(=O)O)[C@@H](C)CC", "MIC", 13.3],
  ["CC[C@H](C)[C@H](NC(=O)[C@H](CCCN=C(N)N)NC(=O)[C@H](CCC(N)=O)NC(=O)[C@@H](NC(=O)[C@@H](NC(=O)[C@H](CCCN=C(N)N)NC(=O)[C@@H](N)CCCCN)[C@@H](C)CC)C(C)C)C(=O)N[C@@H](CCCCN)C(=O)N[C@@H](CC(=O)O)C(=O)N[C@@H](C)C(=O)N[C@@H](CC(C)C)C(=O)N[C@@H](CCCN=C(N)N)C(=O)O", "MIC", 20]
]}

Give the observed MIC of CC[C@H](C)[C@H](NC(=O)[C@@H](NC(=O)[C@H](CO)NC(=O)[C@H](C)NC(=O)[C@@H](NC(=O)[C@H](CCCCN)NC(=O)[C@H](CCCN=C(N)N)NC(=O)[C@@H](NC(=O)[C@@H](NC(=O)[C@H](CCCN=C(N)N)NC(=O)[C@H](Cc1c[nH]c2ccccc12)NC(=O)[C@H](CC(C)C)NC(=O)CN)C(C)C)[C@@H](C)CC)C(C)C)C(C)C)C(=O)NCC(=O)NCC(=O)N[C@@H](CC(C)C)C(=O)O for Candida albicans ATCC 90028.
18.6

Give the observed MIC of CC[C@H](C)[C@H](N)C(=O)N[C@@H](CCCN=C(N)N)C(=O)N[C@H](C(=O)N[C@@H](CCCN=C(N)N)C(=O)N[C@H](C(=O)N[C@@H](CCCN=C(N)N)C(=O)N[C@H](C(=O)N[C@@H](CCCN=C(N)N)C(N)=O)[C@@H](C)CC)[C@@H](C)CC)[C@@H](C)CC for Candida albicans ATCC 90028.
6.25

Give the observed MIC of CSCC[C@H](NC(=O)[C@H](Cc1ccccc1)NC(=O)CNC(=O)[C@H](Cc1cnc[nH]1)NC(=O)[C@H](CC(C)C)NC(=O)[C@H](CO)NC(=O)CN)C(=O)N[C@@H](Cc1ccc(O)cc1)C(=O)N[C@@H](CCCCN)C(=O)N[C@@H](Cc1ccc(O)cc1)C(=O)N[C@@H](CC(C)C)C(=O)N[C@@H](CCCCN)C(=O)N[C@H](C(=O)N[C@@H](CC(C)C)C(=O)N[C@H](C(=O)N[C@@H](CC(C)C)C(=O)N[C@@H](CCCN=C(N)N)C(=O)N[C@@H](CC(C)C)C(=O)N[C@@H](Cc1ccc(O)cc1)C(N)=O)C(C)C)[C@@H](C)O for Candida albicans ATCC 90028.
6.67

Give the observed MIC of CC[C@H](C)[C@H](NC(=O)[C@H](CCCCN)NC(=O)[C@H](CC(=O)O)NC(=O)[C@H](Cc1ccccc1)NC(=O)[C@H](CC(C)C)NC(=O)[C@@H](N)CCCN=C(N)N)C(=O)N[C@@H](CCCN=C(N)N)C(=O)N[C@@H](CCC(N)=O)C(=O)N[C@H](C(=O)N[C@H](C(=O)N[C@@H](CCCN=C(N)N)C(=O)N[C@@H](CCCCN)C(=O)O)[C@@H](C)CC)C(C)C for Candida albicans ATCC 90028.
5

###

These compounds were tested on Escherichia coli ATCC 25922; MIC is the recorded read-out.
Express the result in µM but write the number alone.

As a guide, the following entries are already answered.
{"columns": ["molecule.smiles", "result.value"],
 "data": [
  ["CC[C@H](C)[C@H](NC(=O)[C@H](CCCCN)NC(=O)[C@H](CC(C)C)NC(=O)[C@H](CC(C)C)NC(=O)[C@@H]1CCCN1C(=O)CNC(=O)[C@H](CC(C)C)NC(=O)[C@H](CCCCN)NC(=O)CN)C(=O)N[C@@H](C)C(=O)N[C@@H](C)C(=O)N[C@@H](CCCCN)C(=O)N[C@H](C(=O)NCC(=O)N[C@@H](CO)C(=O)N[C@@H](CCCCN)C(=O)N[C@@H](CC(C)C)C(=O)N[C@@H](CC(C)C)C(N)=O)C(C)C", 6.3],
  ["CC(C)C[C@H](NC(=O)CN)C(=O)N[C@@H](CC(C)C)C(=O)N[C@@H](CC(=O)O)C(=O)N[C@@H](Cc1ccccc1)C(=O)N[C@@H](CC(C)C)C(=O)N[C@@H](CCCCN)C(=O)N[C@@H](C)C(=O)N[C@@H](C)C(=O)NCC(=O)N[C@@H](CCCCN)C(=O)NCC(=O)N[C@@H](CC(C)C)C(=O)N[C@H](C(=O)N[C@@H](CO)C(=O)N[C@@H](CC(N)=O)C(=O)N[C@@H](CC(C)C)C(=O)N[C@@H](CC(C)C)C(=O)N[C@@H](CCC(=O)O)C(=O)N[C@@H](CCCCN)C(N)=O)C(C)C", 15]
]}

Now consider a different compound.
Return value of MIC for input CC[C@H](C)[C@H](NC(=O)[C@H](CCCCN)NC(=O)[C@H](C)NC(=O)[C@H](C)NC(=O)[C@@H](NC(=O)[C@H](C)NC(=O)[C@H](CC(C)C)NC(=O)[C@H](CC(C)C)NC(=O)[C@H](C)NC(=O)[C@H](CCCCN)NC(=O)[C@H](CC(C)C)NC(=O)[C@H](CC(N)=O)NC(=O)[C@@H](N)CC(C)C)C(C)C)C(=O)N[C@@H](CC(C)C)C(N)=O , no commentary.
8

###

Tested on: Escherichia coli ATCC 25922
measured.quantity: MIC

Give the observed MIC of CC[C@H](C)[C@H](NC(=O)[C@H](CCCCN)NC(=O)[C@H](CCCCN)NC(=O)[C@H](CC(C)C)NC(=O)[C@H](CCCN=C(N)N)NC(=O)[C@H](CC(=O)O)NC(=O)[C@H](CCCN=C(N)N)NC(=O)[C@@H](NC(=O)[C@H](CCCCN)NC(=O)[C@H](CC(=O)O)NC(=O)[C@H](CCCN=C(N)N)NC(=O)[C@H](CC(C)C)NC(=O)[C@H](CCCN=C(N)N)NC(=O)[C@H](CCCN=C(N)N)NC(=O)[C@H](Cc1ccccc1)NC(=O)[C@@H](N)CCCN=C(N)N)[C@@H](C)O)C(N)=O [RFRRLRDKTRDRLKKI] for Escherichia coli ATCC 25922.
> 128 µM

###

These compounds were tested on Escherichia coli ATCC 25922; MIC is the recorded read-out.
Express the result in µM but write the number alone.

As a guide, the following entries are already answered.
{"columns": ["compound", "MIC (µM)"],
 "data": [
  ["CC[C@H](C)[C@H](N)C(=O)N[C@@H](Cc1ccccc1)C(=O)NCC(=O)N[C@H](C(=O)N[C@H](C(=O)N[C@@H](CC(C)C)C(=O)NCC(=O)N[C@@H](Cc1ccccc1)C(=O)N[C@@H](CC(C)C)C(=O)N[C@@H](CCCCN)C(=O)NCC(=O)N[C@@H](CC(C)C)C(N)=O)[C@@H](C)CC)[C@@H](C)O [IFGTILGFLKGL]", 100],
  ["NCCCC[C@H](NC(=O)[C@H](Cc1ccc(O)cc1)NC(=O)[C@H](Cc1c[nH]c2ccccc12)NC(=O)[C@H](CCCCN)NC(=O)[C@H](CCCCN)NC(=O)[C@H](Cc1ccc(O)cc1)NC(=O)[C@H](Cc1c[nH]c2ccccc12)NC(=O)[C@@H](N)CCCCN)C(N)=O [KWYKKWYK]", 4]
]}

Now consider a different compound.
Return value of MIC for input CC[C@H](C)[C@H](NC(=O)[C@H](Cc1ccc(O)cc1)NC(=O)[C@H](CCC(N)=O)NC(=O)[C@H](CC(C)C)NC(=O)[C@H](C)NC(=O)[C@H](CCCCN)NC(=O)[C@H](CCCCN)NC(=O)[C@H](CCSC)NC(=O)[C@@H](N)CCCCN)C(=O)N[C@@H](CCCCN)C(=O)N[C@@H](CC(C)C)C(=O)N[C@@H](CC(C)C)C(=O)N[C@@H](CCCCN)C(=O)N[C@@H](CCC(=O)O)C(N)=O [KMKKALQYIKLLKE] , no commentary.
100

The reported numbers originate from DBAASP.
